system.name: SERCA2 (Homo sapiens, UniProt P16615)
Construct: endogenous in cells; host or cells: HEK-293T cells, microsomal membrane vesicles (HEK-293 ER)
Sequence (P16615 whole entry): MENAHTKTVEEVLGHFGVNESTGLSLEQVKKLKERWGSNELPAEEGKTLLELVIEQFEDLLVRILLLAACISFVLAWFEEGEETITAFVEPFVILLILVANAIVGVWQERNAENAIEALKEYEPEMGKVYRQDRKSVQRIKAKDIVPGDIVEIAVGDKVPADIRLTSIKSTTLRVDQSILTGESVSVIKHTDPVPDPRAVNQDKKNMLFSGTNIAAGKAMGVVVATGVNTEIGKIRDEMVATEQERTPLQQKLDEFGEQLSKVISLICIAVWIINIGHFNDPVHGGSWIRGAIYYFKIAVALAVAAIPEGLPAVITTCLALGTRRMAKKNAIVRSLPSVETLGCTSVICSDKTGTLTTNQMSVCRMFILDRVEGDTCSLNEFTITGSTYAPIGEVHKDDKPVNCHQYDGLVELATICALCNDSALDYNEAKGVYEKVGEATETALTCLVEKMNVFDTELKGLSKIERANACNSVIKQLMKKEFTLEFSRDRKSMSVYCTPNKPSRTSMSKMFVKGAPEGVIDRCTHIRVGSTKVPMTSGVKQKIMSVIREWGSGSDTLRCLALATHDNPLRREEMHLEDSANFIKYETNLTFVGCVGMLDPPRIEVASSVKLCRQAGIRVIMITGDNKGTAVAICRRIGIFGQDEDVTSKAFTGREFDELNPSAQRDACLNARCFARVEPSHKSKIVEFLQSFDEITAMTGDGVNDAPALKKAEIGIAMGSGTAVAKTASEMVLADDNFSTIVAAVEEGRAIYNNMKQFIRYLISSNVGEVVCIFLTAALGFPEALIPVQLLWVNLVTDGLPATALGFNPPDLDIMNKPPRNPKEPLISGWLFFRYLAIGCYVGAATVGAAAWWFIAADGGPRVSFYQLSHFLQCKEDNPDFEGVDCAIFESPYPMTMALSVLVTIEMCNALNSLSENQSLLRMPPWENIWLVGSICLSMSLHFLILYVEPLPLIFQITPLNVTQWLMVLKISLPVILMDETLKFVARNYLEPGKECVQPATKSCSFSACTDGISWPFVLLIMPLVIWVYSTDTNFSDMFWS
experiment.description: NADH-coupled ATPase assay on microsomal membrane vesicles from HEK-293T cells (HEK-293 ER)
Assay type: biochemical
measurement.context: 10 μM (1 μM for 12b per Figure S7), microsomal membrane vesicles
measure: SERCA2a HEK ER effect class

Prompt: For COc1ccc(SCCCNCCCCC2(O)CC2)cc1 [11c] , what is its reported SERCA2a HEK ER effect class?
Completion: +

Prompt: For COc1ccc(SCCCN(CCCCC2(O)CC2)CCCCC2(O)CC2)cc1 [12c] , what is its reported SERCA2a HEK ER effect class?
Completion: +

Prompt: For COc1ccc2c(c1)CN(CCCCC1(O)CC1)CCS2 [11d] , what is its reported SERCA2a HEK ER effect class?
Completion: +

Prompt: For COc1ccc2c(c1)CN(Cc1ccc(C(=O)O)cc1)CCS2 [ARM210, reference compound] , what is its reported SERCA2a HEK ER effect class?
Completion: +

API: the following record is the query input.
Prompt: For COc1ccc2c(c1)CN(CCCCN(CCCCC1(O)CC1)CCCCC1(O)CC1)CCS2 [12a] , what is its reported SERCA2a HEK ER effect class?
Completion: ++
